src = paper PMC9137774

Give measured Kd for each item. Keep answers brief.
- Experimental system: T1, ArsR1 (Paracoccus denitrificans, UniProt A1B6S3 1-119)
- T1 sequence: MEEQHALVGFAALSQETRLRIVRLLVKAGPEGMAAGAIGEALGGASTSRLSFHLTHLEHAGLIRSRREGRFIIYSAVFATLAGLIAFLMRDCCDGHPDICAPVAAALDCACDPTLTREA
- Measurement notes: fluorescence anisotropy; Anisotropy: 10 mM MOPS, 0.1 M NaCl, 15% glycerol, pH 7.5 (Methods; Figure 9 legend says pH 7.0), 30 °C, 25 nM DNA; EMSA: 10 mM Tris-HCl, 50 mM NaCl, 0.5 mM EDTA, pH 8.0, room temperature, 10 µM DNA and 10 µM ArsR
- Condition label: protein: recombinant; tags: N-terminal His6 (pET100/D-TOPO); chain copies: 2; label: 5'-FAM on strand 1; blunt

Parameters: items (list). Returns: Kd for each item.
1. PDNA2 (dsDNA) DNA 1: ATCAACATATCTTGAGAGGTTGATTCG DNA 2: CGAATCAACCTCTCAAGATATGTTGAT
2. PDNA1 (dsDNA) DNA 1: CTCAACATATCTTGAGAGGTTGATTCG DNA 2: CGAATCAACCTCTCAAGATATGTTGAG

A)
1. 26 nM
2. 9 nM
